# Assay protocol: counter assay for TAg ATPase ADP read-out – biochemical, ADP-Hunter, fluorescence, counter-screen (AID 2501);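 further: purified T antigen ATPase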
# Recorded conditions: series mostly up to 100 µM
Hit rate of the full screen: of about 2,200 compounds, about 1,200 (55%) were called active. Cut-off not given; nearly all actives show IC50 up to about 92 µM. The set was probably picked from earlier hits. The list shows a part of the results.
Your response should consist of one outcome taken from true (1) for active, false (0) for inactive

Here are 4 compounds together with their reported answers.
1. CCN(CC)c1ccc(/C=N/O)cc1
true (1)
2. CC(=O)CC1OC(=O)C(Br)=C1NCc1ccccc1 (stereo not drawn)
false (0)
3. COc1cccc2c(N/N=C/c3ccc(O)c(O)c3)cc(C)nc12
true (1)
4. COc1cc(/C=N/Nc2ccnc(=O)[nH]2)ccc1O
true (1)

Here is the next item to consider.
Called result for COCCCN(Cc1ccco1)C(=O)Cn1ncc2c(=O)oc3ccc(C)cc3c21 false (0)
